molecular target: SK4 K+ channel (Homo sapiens, UniProt O15554)
recordedMetric: pEC50
Give bare numbers, as −log10 of the molar value.

So for `CCCCCCCC(=O)OC[C@H](COP(=O)(O)O[C@@H]1[C@H](O)[C@H](O)[C@@H](OP(=O)(O)O)[C@H](OP(=O)(O)O)[C@H]1O)OC(=O)CCCCCCC` , the logged pEC50 turned out to be 6.81
